System tested: mGluR5 (Homo sapiens, UniProt P41594)
Sequence (P41594 21-1212): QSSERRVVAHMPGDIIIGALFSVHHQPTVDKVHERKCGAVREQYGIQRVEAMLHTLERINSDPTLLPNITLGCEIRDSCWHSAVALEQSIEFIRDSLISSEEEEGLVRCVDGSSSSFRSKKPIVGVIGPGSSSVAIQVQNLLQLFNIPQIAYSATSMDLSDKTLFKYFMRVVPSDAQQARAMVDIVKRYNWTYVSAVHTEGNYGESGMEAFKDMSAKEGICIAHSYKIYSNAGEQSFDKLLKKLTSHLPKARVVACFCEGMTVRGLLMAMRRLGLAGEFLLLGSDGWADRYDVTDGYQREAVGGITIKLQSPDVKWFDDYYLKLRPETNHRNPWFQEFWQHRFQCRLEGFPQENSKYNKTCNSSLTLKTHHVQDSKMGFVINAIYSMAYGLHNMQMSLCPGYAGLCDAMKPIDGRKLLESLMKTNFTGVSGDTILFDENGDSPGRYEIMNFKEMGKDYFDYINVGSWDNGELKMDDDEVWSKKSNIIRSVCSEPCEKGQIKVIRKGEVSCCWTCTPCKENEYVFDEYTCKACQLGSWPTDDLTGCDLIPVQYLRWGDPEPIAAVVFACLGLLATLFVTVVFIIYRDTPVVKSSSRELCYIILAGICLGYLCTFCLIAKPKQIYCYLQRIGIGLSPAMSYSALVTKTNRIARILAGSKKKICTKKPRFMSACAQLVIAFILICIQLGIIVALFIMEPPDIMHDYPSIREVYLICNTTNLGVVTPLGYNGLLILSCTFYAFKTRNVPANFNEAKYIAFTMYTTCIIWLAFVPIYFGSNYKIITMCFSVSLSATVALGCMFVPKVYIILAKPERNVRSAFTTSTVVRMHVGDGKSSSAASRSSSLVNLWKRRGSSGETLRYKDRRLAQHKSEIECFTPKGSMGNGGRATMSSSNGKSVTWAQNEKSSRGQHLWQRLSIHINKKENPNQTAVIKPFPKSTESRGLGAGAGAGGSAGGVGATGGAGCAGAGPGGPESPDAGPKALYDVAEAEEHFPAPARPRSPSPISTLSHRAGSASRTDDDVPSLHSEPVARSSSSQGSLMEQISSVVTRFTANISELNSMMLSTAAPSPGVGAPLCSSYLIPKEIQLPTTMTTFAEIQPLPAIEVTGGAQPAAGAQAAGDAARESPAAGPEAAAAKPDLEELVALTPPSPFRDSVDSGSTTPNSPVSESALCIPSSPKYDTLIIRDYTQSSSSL
Method summary: mGluR5 PAM EC50 (positive allosteric modulator potency)
Assay type: cell-based
As shown below, each of these molecules has a reported EC50 value.
Measurement kind: EC50

* CC1(C)Cc2nc3c(F)c(C#Cc4ccccn4)ccc3c(=O)n2C1 | < 10 nM
* Cc1cnc(C#Cc2ccc3c(=O)n4c(nc3c2)CCC(C)(C)C4)s1 | < 10 nM
* CC1(C)CCc2nc3cc(C#Cc4ncccc4F)ccc3c(=O)n2C1 | < 10 nM
* O=c1c2ccc(C#Cc3ccccn3)cc2nc2n1CCC1(CO)CC21 (stereo not drawn) | 100 to 300 nM
* CC1(C)CCc2nc3cc(-c4ncc(-c5ccccn5)cn4)ccc3c(=O)n2C1 | 300 to 1000 nM
* CCC1CCCc2nc3cc(C#Cc4ccccn4)ccc3c(=O)n21 (single isomer, unassigned) [Example 2.7b] | < 10 nM
* O=c1c2ccc(C#Cc3ccccn3)cc2nc2n1CC1(CC2)CC1(F)F (stereo not drawn) | < 10 nM
* O=c1c2ccc(C#Cc3ccccn3)cc2nc2n1CCC(O)CC2 (single isomer, unassigned) [Example 3.2b] | 30 to 100 nM
* CC1(C)CCc2nc3cc(-c4ncc(-c5ccccn5)o4)ccc3c(=O)n2C1 | 100 to 300 nM
* O=c1c2ccc(C#Cc3ccccn3)cc2nc2n1CCC(F)CC2 (single isomer, unassigned) | 30 to 100 nM
* CC1(C)CCc2nc3cc(-c4nc(-c5ccccn5)c[nH]4)ccc3c(=O)n2C1 | 300 to 1000 nM
* CC1(C)COc2nc3cc(C#Cc4ccccn4)ccc3c(=O)n2C1 | 10 to 30 nM
* CC1(C)CCc2nc3cc(C#Cc4cc(C#N)ccn4)ccc3c(=O)n2C1 [Example 2.25b] | < 10 nM
* COCCC1Cc2nc3cc(C#Cc4ccccn4)ccc3c(=O)n2C1 (stereo not drawn) | 100 to 300 nM
* COCC1(C)CCc2nc3cc(C#Cc4ccccn4)ccc3c(=O)n2C1 (stereo not drawn) | 10 to 30 nM
* Cc1cc(C#Cc2ccccn2)cc2nc3n(c(=O)c12)CCC(C)CC3 (stereo not drawn) | 30 to 100 nM
* CC1CCn2c(nc3cc(C#Cc4ccccn4)ccc3c2=O)C1 (single isomer, unassigned) | 10 to 30 nM
* CCC1(C)Cc2nc3cc(C#Cc4ccccn4)ccc3c(=O)n2C1 (stereo not drawn) | 10 to 30 nM
* C=CC1(O)CCc2nc3cc(C#Cc4ccccn4)ccc3c(=O)n2C1 (stereo not drawn) | 300 to 1000 nM
* COC1CCc2nc3cc(C#Cc4ccccn4)ccc3c(=O)n2CC1 (single isomer, unassigned) [Example 3.11b] | 10 to 30 nM
* CC1(C)CCc2nc3cc(C(=O)Cc4ccccn4)ccc3c(=O)n2C1 | 30 to 100 nM
* CC1(C)CCc2nc3cc(C#Cc4cncc(F)c4)ccc3c(=O)n2C1 | < 10 nM
* CCC1(F)CCc2nc3cc(C#Cc4ccccn4)ccc3c(=O)n2CC1 (stereo not drawn) | 10 to 30 nM
* CC1(C)CCc2nc3cc(Nc4ccccn4)ccc3c(=O)n2C1 | 300 to 1000 nM
* Cc1cccc(C#Cc2ccc3c(=O)n4c(nc3c2)CCC(C)(C)C4)n1 | 10 to 30 nM
* COCCC1Cc2nc3cc(C#Cc4ccccn4)cnc3c(=O)n2C1 (stereo not drawn) | 300 to 1000 nM
* CC1(C)CCn2c(nc3cc(C(=O)Nc4ccccn4)ccc3c2=O)C1 | 100 to 300 nM
* Cc1cc(C#Cc2ccc3c(=O)n4c(nc3c2)CCC(C)(C)C4)sn1 | < 10 nM
* CC1CCc2nc3cc(C#Cc4ccccn4)cnc3c(=O)n2C1 (single isomer, unassigned) [Example 2.16b] | 100 to 300 nM
* O=c1c2ccc(C#Cc3ccccn3)cc2nc2n1CC1(CCC2)COC1 | 10 to 30 nM

* * *

System tested: mGluR5 (Homo sapiens)
Method summary: mGluR5 PAM EC50 (positive allosteric modulator potency)
Measurement kind: EC50

• O=c1c2ccc(C#Cc3ccccn3)cc2nc2n1CC(C(F)(F)F)C2 (single isomer, unassigned) [Example 1.8b] = 30 to 100 nM
• Cc1csc(/C=C/c2ccc3c(=O)n4c(nc3c2)CCC(C)(C)C4)n1 = 10 to 30 nM
• CC1CCc2cc3cc(C#Cc4ccccn4)ccc3c(=O)n2CC1 (single isomer, unassigned) [Example 3.20a] = < 10 nM
• CC(C)(O)C1Cc2nc3cc(C#Cc4ccccn4)ccc3c(=O)n2C1 (single isomer, unassigned) [Example 1.2a] = 10 to 30 nM
• CC1(C)CCn2c(nc3cc(C#Cc4cccc(C#N)n4)ccc3c2=O)C1 [Example 2.24a] = < 10 nM
• CCC1CCc2nc3cc(C#Cc4ccccn4)ccc3c(=O)n2CC1 (single isomer, unassigned) [Example 3.13a] = < 10 nM
• CC1(C)CCc2nc3cc(C#Cc4ccncc4F)ccc3c(=O)n2C1 = < 10 nM
• CC1(C)CCc2nc3cc(OCc4ccccn4)ccc3c(=O)n2C1 = 30 to 100 nM
• O=c1c2ncc(C#Cc3ccccn3)cc2nc2n1CC(F)(F)CCC2 = 30 to 100 nM
• CC1(C)CCc2nc3cc(C#Cc4ccccc4F)ccc3c(=O)n2C1 = 10 to 30 nM
• CC1(C)CCc2nc3cc(/C=C/c4cc(C#N)ccn4)ccc3c(=O)n2C1 = 300 to 1000 nM
• CC1(C)CCC2Cn3c(nc4cc(C#Cc5ccccn5)ccc4c3=O)CN21 (centres unmarked) = 100 to 300 nM
• CC1(C)CCn2c(nc3cc(C#Cc4ccccn4)c(F)cc3c2=O)C1 [Example 2.31a] = 30 to 100 nM
• COCC1Cc2nc3cc(C#Cc4ccccn4)ccc3c(=O)n2C1 (single isomer, unassigned) = 100 to 300 nM
• CC1(F)CCCc2nc3cc(C#Cc4ccccn4)ccc3c(=O)n2C1 (single isomer, unassigned) [Example 3.24a] = < 10 nM
• CC12Cn3c(nc4cc(C#Cc5ccccn5)ccc4c3=O)CC1C2(F)F (centres unmarked) = < 10 nM
• C=CC1(F)CCc2nc3cc(C#Cc4ccccn4)ccc3c(=O)n2C1 (centres unmarked) = 10 to 30 nM
• CC1(F)CCCc2nc3cc(C#Cc4ccccn4)cnc3c(=O)n2C1 (centres unmarked) = 100 to 300 nM
• O=c1c2ncc(C#Cc3ccccn3)cc2nc2n1CC(C(F)(F)F)C2 (centres unmarked) = 100 to 300 nM
• CC1(C)CCc2nc3cc(C#Cc4ccc(C#N)cn4)ccc3c(=O)n2C1 = 10 to 30 nM
• CCC1CCn2c(nc3cc(C#Cc4ccccn4)cnc3c2=O)C1 (single isomer, unassigned) [Example 2.22c] = 10 to 30 nM
• O=c1c2ccc(C#Cc3ccccn3)cc2nc2n1CCC(F)(F)CC2 = 10 to 30 nM
• CC1Cc2nc3cc(C#Cc4ccccn4)ccc3c(=O)n2CCC1(F)F (single isomer, unassigned) [Example 3.30c] = 10 to 30 nM
• O=c1c2ncc(C#Cc3ccccn3)cc2nc2n1CCC(F)(F)CC2 = 100 to 300 nM
• CC1(C)CCc2nc3cc(C#Cc4cccnn4)ccc3c(=O)n2C1 = 30 to 100 nM
• CC1(F)CCc2nc3cc(C#Cc4ccccn4)cnc3c(=O)n2CC1 (single isomer, unassigned) [Example 3.10a] = 100 to 300 nM
• CC(C)(O)C1Cc2nc3cc(C#Cc4ccccn4)ccc3c(=O)n2C1 (single isomer, unassigned) [Example 1.2b] = 300 to 1000 nM
• CC1(C)CCc2nc3cc(NC(=O)c4ccccn4)ccc3c(=O)n2C1 = 100 to 300 nM
• CC1(C)CCc2nc3cc(C#Cc4ccccc4)ccc3c(=O)n2C1 = < 10 nM

* * *

System tested: mGluR5 (Homo sapiens, UniProt P41594)
Method summary: mGluR5 PAM EC50 (positive allosteric modulator potency)
pEC50: −log10 of the molar value.
As shown below, each of these compounds has a reported pEC50 value.
Measurement kind: pEC50

- O=c1c2ncc(C#Cc3ccccn3)cc2nc2n1CCC(C(F)(F)F)CC2 (single isomer, unassigned): 7.00 to 7.52
- Cc1ncc(C#Cc2ccc3c(=O)n4c(nc3c2)CCC(C)(C)C4)s1: > 8.00
- O=c1c2ccc(C#Cc3ccccn3)cc2nc2n1CC1(CCC2)CC1(F)F (stereo not drawn): 7.52 to 8.00
